test system: Candida albicans A9540; test: In vitro antifungal activity, serial agar dilution method (Table 1); type: cell-based; settings: Candida albicans, A9540; Sabouraud dextrose agar (pH 7.0); 28°C for 40 hours
Quantity Name: MIC (µg/mL)
API: value field is a number in µg/mL; no unit string.

Request: Find the measured MIC of COc1cc(O)c2c(c1)C(=O)c1c(cc3c(c1O)-c1c(cc(C)c(C(=O)N[C@H](C)C(=O)O)c1O)[C@H](O[C@@H]1O[C@H](C)[C@H](N(C)C(=O)CN)[C@H](O[C@@H]4OC[C@@H](O)[C@H](O)[C@H]4O)[C@H]1O)[C@H]3O)C2=O and report it.
Result: 12.5

Request: Find the measured MIC of COc1cc(O)c2c(c1)C(=O)c1c(cc3c(c1O)-c1c(cc(C)c(C(=O)N[C@H](C)C(=O)O)c1O)[C@H](O[C@@H]1O[C@H](C)[C@H](N(C)CC(=O)O)[C@H](O[C@@H]4OC[C@@H](O)[C@H](O)[C@H]4O)[C@H]1O)[C@H]3O)C2=O and report it.
Result: 50

Request: Find the measured MIC of COc1cc(O)c2c(c1)C(=O)c1c(cc3c(c1O)-c1c(cc(C)c(C(=O)N[C@H](C)C(=O)O)c1O)[C@H](O[C@@H]1O[C@H](C)[C@H](N(C)C(=O)CCN)[C@H](O[C@@H]4OC[C@@H](O)[C@H](O)[C@H]4O)[C@H]1O)[C@H]3O)C2=O and report it.
Result: 12.5

###

experiment: physchem; conditions: Method II (-): PBS(-)
Record form. Attribute: solubility at 2 h. Fill in for each entry.
API: value field is a number in mg/mL; no unit string.

Request: Find the measured solubility at 2 h of CCOC(=O)CN(C)[C@@H]1[C@H](O[C@@H]2OC[C@@H](O)[C@H](O)[C@H]2O)[C@@H](O)[C@H](O[C@H]2c3cc(C)c(C(=O)N[C@H](C)C(=O)O)c(O)c3-c3c(cc4c(c3O)C(=O)c3cc(OC)cc(O)c3C4=O)[C@@H]2O)O[C@@H]1C [Ex. 3, N-(ethoxycarbonylmethyl) pradimicin A] and report it.
Result: 11

Request: Find the measured solubility at 2 h of COc1cc(O)c2c(c1)C(=O)c1c(cc3c(c1O)-c1c(cc(C)c(C(=O)N[C@H](C)C(=O)O)c1O)[C@H](O[C@@H]1O[C@H](C)[C@H](N(C)CC(N)=O)[C@H](O[C@@H]4OC[C@@H](O)[C@H](O)[C@H]4O)[C@H]1O)[C@H]3O)C2=O [Ex. 2, N-(carbamoylmethyl) pradimicin A] and report it.
Result: 11

Request: Find the measured solubility at 2 h of CN[C@@H]1[C@H](O[C@@H]2OC[C@@H](O)[C@H](O)[C@H]2O)[C@@H](O)[C@H](O[C@H]2c3cc(C)c(C(=O)N[C@H](C)C(=O)O)c(O)c3-c3c(cc4c(c3O)C(=O)c3cc(OC)cc(O)c3C4=O)[C@@H]2O)O[C@@H]1C [Pradimicin A, reference compound] and report it.
Result: 0.017

Request: Find the measured solubility at 2 h of COc1cc(O)c2c(c1)C(=O)c1c(cc3c(c1O)-c1c(cc(C)c(C(=O)N[C@H](C)C(=O)O)c1O)[C@H](O[C@@H]1O[C@H](C)[C@H](NCS(=O)(=O)O)[C@H](O[C@@H]4OC[C@@H](O)[C@H](O)[C@H]4O)[C@H]1O)[C@H]3O)C2=O [Ex. 7, N-(sodiosulfomethyl) pradimicin C] and report it.
Result: 0.003

###

experiment: physchem; details: Method II (+): PBS(+)
Record form. Attribute: solubility at 2 h. Fill in for each entry.
API: value field is a number in µg/mL; no unit string.

Request: Find the measured solubility at 2 h of COc1cc(O)c2c(c1)C(=O)c1c(cc3c(c1O)-c1c(cc(C)c(C(=O)N[C@H](C)C(=O)O)c1O)[C@H](O[C@@H]1O[C@H](C)[C@H](N(C)C(=O)CN)[C@H](O[C@@H]4OC[C@@H](O)[C@H](O)[C@H]4O)[C@H]1O)[C@H]3O)C2=O [Ex. 10, N-glycyl pradimicin A] and report it.
Result: 1000

Request: Find the measured solubility at 2 h of COc1cc(O)c2c(c1)C(=O)c1c(cc3c(c1O)-c1c(cc(C)c(C(=O)N[C@H](C)C(=O)O)c1O)[C@H](O[C@@H]1O[C@H](C)[C@H](N(C)C(=O)CCN)[C@H](O[C@@H]4OC[C@@H](O)[C@H](O)[C@H]4O)[C@H]1O)[C@H]3O)C2=O [Ex. 11, N-(β-alanyl) pradimicin A] and report it.
Result: 250

Request: Find the measured solubility at 2 h of CN[C@@H]1[C@H](O[C@@H]2OC[C@@H](O)[C@H](O)[C@H]2O)[C@@H](O)[C@H](O[C@H]2c3cc(C)c(C(=O)N[C@H](C)C(=O)O)c(O)c3-c3c(cc4c(c3O)C(=O)c3cc(OC)cc(O)c3C4=O)[C@@H]2O)O[C@@H]1C [Pradimicin A, reference compound] and report it.
Result: 81

###

Record form. Attribute: PD₅₀. Fill in for each entry.
tested on: Candida albicans A9540; assay: Intravenous Candida albicans infection mouse model, Table 2 part A; format: in vivo; details: drug administered once just after infection, 20 days after fungal challenge, method of Litchfield and Wilcoxon, male ICR mice
API: value field is a number in mg/kg; no unit string.

Request: Find the measured PD₅₀ of COc1cc(O)c2c(c1)C(=O)c1c(cc3c(c1O)-c1c(cc(C)c(C(=O)N[C@H](C)C(=O)O)c1O)[C@H](O[C@@H]1O[C@H](C)[C@H](N(C)C(=O)CCN)[C@H](O[C@@H]4OC[C@@H](O)[C@H](O)[C@H]4O)[C@H]1O)[C@H]3O)C2=O [Ex. 11, N-(β-alanyl) pradimicin A] and report it.
Result: 36

Request: Find the measured PD₅₀ of COc1cc(O)c2c(c1)C(=O)c1c(cc3c(c1O)-c1c(cc(C)c(C(=O)N[C@H](C)C(=O)O)c1O)[C@H](O[C@@H]1O[C@H](C)[C@H](N(C)C(=O)CN)[C@H](O[C@@H]4OC[C@@H](O)[C@H](O)[C@H]4O)[C@H]1O)[C@H]3O)C2=O [Ex. 10, N-glycyl pradimicin A] and report it.
Result: 30

Request: Find the measured PD₅₀ of COc1cc(O)c2c(c1)C(=O)c1c(cc3c(c1O)-c1c(cc(C)c(C(=O)N[C@H](C)C(=O)O)c1O)[C@H](O[C@@H]1O[C@H](C)[C@H](N(C)CC(=O)O)[C@H](O[C@@H]4OC[C@@H](O)[C@H](O)[C@H]4O)[C@H]1O)[C@H]3O)C2=O [Ex. 1, N-(carboxymethyl) pradimicin A] and report it.
Result: 45

Request: Find the measured PD₅₀ of CCOC(=O)CN(C)[C@@H]1[C@H](O[C@@H]2OC[C@@H](O)[C@H](O)[C@H]2O)[C@@H](O)[C@H](O[C@H]2c3cc(C)c(C(=O)N[C@H](C)C(=O)O)c(O)c3-c3c(cc4c(c3O)C(=O)c3cc(OC)cc(O)c3C4=O)[C@@H]2O)O[C@@H]1C [Ex. 3, N-(ethoxycarbonylmethyl) pradimicin A] and report it.
Result: 18

Request: Find the measured PD₅₀ of COc1cc(O)c2c(c1)C(=O)c1c(cc3c(c1O)-c1c(cc(C)c(C(=O)N[C@H](C)C(=O)O)c1O)[C@H](O[C@@H]1O[C@H](C)[C@H](NCS(=O)(=O)O)[C@H](O[C@@H]4OC[C@@H](O)[C@H](O)[C@H]4O)[C@H]1O)[C@H]3O)C2=O [Ex. 7, N-(sodiosulfomethyl) pradimicin C] and report it.
Result: 7.2

Request: Find the measured PD₅₀ of COc1cc(O)c2c(c1)C(=O)c1c(cc3c(c1O)-c1c(cc(C)c(C(=O)N[C@H](C)C(=O)O)c1O)[C@H](O[C@@H]1O[C@H](C)[C@H](N(C)CC(N)=O)[C@H](O[C@@H]4OC[C@@H](O)[C@H](O)[C@H]4O)[C@H]1O)[C@H]3O)C2=O [Ex. 2, N-(carbamoylmethyl) pradimicin A] and report it.
Result: 29

###

tested on: Trichophyton rubrum A26761; assay: In vitro antifungal activity, serial agar dilution method (Table 1a); type: cell-based; settings: A26761, pH 7, read-out: MICs, Trichophyton rubrum A26761
Record form. Attribute: MIC. Fill in for each entry.
API: value field is a number in mg/L; no unit string.

Request: Find the measured MIC of CN[C@@H]1[C@H](O)[C@@H](O)[C@H](O[C@H]2c3cc(C)c(C(=O)N[C@H](C)C(=O)O)c(O)c3-c3c(cc4c(c3O)C(=O)c3cc(OC)cc(O)c3C4=O)[C@@H]2O)O[C@@H]1C [Pradimicin B, reference compound] and report it.
Result: 3.2

Request: Find the measured MIC of COc1cc(O)c2c(c1)C(=O)c1c(cc3c(c1O)-c1c(cc(C)c(C(=O)N[C@H](C)C(=O)O)c1O)[C@H](O[C@@H]1O[C@H](C)[C@H](N(C)C(=O)NS(=O)(=O)c4ccc(C)cc4)[C@H](O)[C@H]1O)[C@H]3O)C2=O and report it.
Result: 50

Request: Find the measured MIC of COc1cc(O)c2c(c1)C(=O)c1c(cc3c(c1O)-c1c(cc(C)c(C(=O)N[C@H](C)C(=O)O)c1O)[C@H](O[C@@H]1O[C@H](C)[C@H](N(C)CC(N)=O)[C@H](O)[C@H]1O)[C@H]3O)C2=O and report it.
Result: 1.6

Request: Find the measured MIC of COc1cc(O)c2c(c1)C(=O)c1c(cc3c(c1O)-c1c(cc(C)c(C(=O)N[C@H](C)C(=O)O)c1O)[C@H](O[C@@H]1O[C@H](C)[C@H](N(C)C(=O)CN(C)C)[C@H](O)[C@H]1O)[C@H]3O)C2=O and report it.
Result: 2.5

Request: Find the measured MIC of COc1cc(O)c2c(c1)C(=O)c1c(cc3c(c1O)-c1c(cc(C)c(C(=O)N[C@H](C)C(=O)O)c1O)[C@H](O[C@@H]1O[C@H](C)[C@H](N(C)CC(=O)O)[C@H](O)[C@H]1O)[C@H]3O)C2=O and report it.
Result: 12.5

Request: Find the measured MIC of C=CCN(C)[C@@H]1[C@H](O)[C@@H](O)[C@H](O[C@H]2c3cc(C)c(C(=O)N[C@H](C)C(=O)O)c(O)c3-c3c(cc4c(c3O)C(=O)c3cc(OC)cc(O)c3C4=O)[C@@H]2O)O[C@@H]1C and report it.
Result: 3.2

Request: Find the measured MIC of COc1cc(O)c2c(c1)C(=O)c1c(cc3c(c1O)-c1c(cc(C)c(C(=O)N[C@H](C)C(=O)O)c1O)[C@H](O[C@@H]1O[C@H](C)[C@H](N(C)Cc4ccccc4)[C@H](O[C@@H]4OC[C@@H](O)[C@H](O)[C@H]4O)[C@H]1O)[C@H]3O)C2=O and report it.
Result: 3.2

Request: Find the measured MIC of COc1cc(O)c2c(c1)C(=O)c1c(cc3c(c1O)-c1c(cc(C)c(C(=O)N[C@H](C)C(=O)O)c1O)[C@H](O[C@@H]1O[C@H](C)[C@H](N(C)C(N)=O)[C@H](O)[C@H]1O)[C@H]3O)C2=O and report it.
Result: 25
